Assay: 28-day repeat-dose toxicity
Assay type: in vivo
Settings: female, SD, rat, plasma, po; females 60 mg/kg; read-out: Cmax at STD10, day 28
RECORDED METRIC: Cmax (ng/mL)
Answers are plain numbers, in ng/mL.

In: Can you look up the measured Cmax of COc1ccc(CN2C3CC2CN(c2ccc(-c4cc(N5CC(C)(O)C5)cn5ncc(C#N)c45)cn2)C3)cn1 [SY-5007] for me?
Out: 14900

###

Test: Phase 1 trial: plasma pharmacokinetics
Format: in vivo
Conditions: human, 160 mg, Cycle 1 Day 28, 160 mg BID (n = 15), read-out: AUC0–12 h mean
RECORDED METRIC: AUC(0-t) (ng·h/mL)
One number for each entry, in ng·h/mL.

In: Consider the compound shown here: `COc1ccc(CN2C3CC2CN(c2ccc(-c4cc(N5CC(C)(O)C5)cn5ncc(C#N)c45)cn2)C3)cn1` What is its recorded AUC(0-t)?
Out: 36800
